system: A498 renal; assay: NCI-60 one-dose screen, 48 h (100 = growth as untreated, 0 = no growth, -100 = all killed); conditions: 10 µM unless noted
The panel holds about 83,000 compounds, 20% with a hit somewhere; the sample as a whole holds those more often.
growth: recorded values
Answer in %, number only, no unit symbol.

Some solved cases for reference:
C[C@H](C(=O)N[C@@H](Cc1ccc(-c2ccccc2)cc1)C(=O)NC1CC(C)(C)N(C)C(C)(C)C1)c1ccc(-c2ccccc2)c(F)c1 = -18.2
COc1ccc([N+](=O)[O-])c(S(=O)(=O)c2ccc(Cl)cc2)n1 = 110
CN1CCN(c2nc3scc(-c4ccccc4)c3c(=O)[nH]2)CC1 = 91
Cc1n(Cc2ccc3ccccc3c2)c2ccccc2[n+]1Cc1ccc2ccccc2c1 = -11.5
O=c1ccn(C2CC=C(CO)O2)c(=O)[nH]1 (stereo unspecified) = 101

Result for "Oc1ccc(/C=N/Nc2nc3ccccc3s2)c(O)c1" , tested on A498 renal, growth: 77.9

Result for "O=C(/C=C/c1cccc(O)c1)c1cccc(-n2cc(-c3ccccc3)[nH]c2=O)c1" , tested on A498 renal, growth: 90.6

Result for "COc1ccccc1NC(=O)c1sc2nc3c(cc2c1N)C(=O)CCC3" , tested on A498 renal, growth: -5.03

====

system: MDA-MB-435 melanoma; assay: NCI-60 one-dose screen, 48 h; conditions: 10 µM unless noted
Compounds without any hit were thinned out: in the full panel of roughly 83,000, 20% have a hit. Activity calls are given as the source filed them. Rule for the calls: active = growth percent below 10; inactive = the rest.
Outcome (select one): 1.0 (active), 0.0 (inactive)

Solved entries (count: 4):
C=CCN(/C=C/CN(CC=C)CC=C)CC=C = 0.0
Cc1cc(-c2ccccc2)cc(C)n1 = 0.0
O=C(CC1Sc2ccccc2NC1=O)NNc1cccc(Cl)c1Cl (stereo unspecified) = 0.0
N=C1c2nc3n(c2C(=O)c2nc4n(c21)CCCCC4)CCCCC3 = 0.0

Prompt: Hello, I am checking results. What call was entered for "[N-]=[N+]=NCc1ncc(-c2ccc(C(F)(F)F)cc2)c(NC2CCCCCC2)n1" ?
Response: 0.0

Prompt: Hello, I am checking results. What call was entered for "COc1cc(-c2nc3sc4c(c3c(=O)[nH]2)CCCCCC4)cc(OC)c1OC" ?
Response: 1.0

====

growth: recorded values
system: SK-MEL-28 melanoma; experiment: NCI-60 one-dose screen, 48 h (100 = growth as untreated, 0 = no growth, -100 = all killed); conditions: 10 µM unless noted
This is part of a sample that, as a whole, favours compounds with a hit. Of some 83,000 tested, about 20% had one in any assay. Activity calls are given as the source filed them. Rule for the calls: active = growth percent below 10; inactive = the rest.

Some solved cases for reference:
COC(=O)C1=CCC(n2cnc3c(N)ncnc32)O1 (stereo not given) = 115% (inactive)
CC1Cc2ccccc2N1C(=O)c1ccc(C(=O)c2ccccc2)cc1 (stereo not given) = 99.5% (inactive)
O=C1Nc2ccc(Cl)cc2/C1=C/c1cccs1 = 113% (inactive)
Cc1cc(C)c2c(N)c3cccc(C)c3nc2n1 = -9.8% (active)
O=C1/C=C/[C@@H](O)[C@@H]2C[C@@H](O)C[C@H]2/C=C/CCC[C@H](CO)O1 = -18.8% (active)
CCSc1nc(Nc2ccc(S(=O)(=O)Nc3ccon3)cc2)c(C#N)c(-c2cccc(Br)c2)n1 = 103% (inactive)
Cc1cc(Cl)ccc1Nc1nc(C(F)(F)F)ccc1C(=O)N/N=C/c1ccc(Cl)cc1 = 20.9% (inactive)
Cc1ccc(N/N=C(/C(=O)c2ccc(Cl)cc2)c2nc(C)cc(=O)[nH]2)cc1 = 118% (inactive)

# growth of CC(C)=CCNc1ncnc2c1ncn2C1OC(COP(=O)(O)O)C(O)C1O (stereo not given) = 85.7% (inactive)

# growth of "CCCCCc1c(C)[nH]c(/C=C2\N=C(c3ccc[nH]3)C=C2Oc2ccccc2)c1C" = -95.1% [100 µM] (active)

====

test system: HOP-92 NSCLC; test: NCI-60 one-dose screen, 48 h; settings: 10 µM unless noted
The panel holds about 83,000 compounds, 20% with a hit somewhere; the sample as a whole holds those more often. The source made the active and inactive calls. How the source made its calls: active means growth percent below 10; inactive means the rest.
Outcome (select one): active, inactive

Prompt: Hello, I am checking results. What call was entered for "Cn1ccnc1C(=O)/C=C/c1ccc(C(=O)Nc2nc3ccccc3[nH]2)cc1" ?
Response: inactive

Prompt: Hello, I am checking results. What call was entered for "CSc1nc2nc3c(c(-c4ccc(C)cc4)c2c(=O)[nH]1)CN(C)C/C3=C\c1ccc(C)cc1" ?
Response: inactive

Prompt: Hello, I am checking results. What call was entered for C=C1CCC2C3(C)COC(c4ccccc4)OC3CCC2(C)C1C/C=C1/C(=O)OCC1OC(C)=O (centres undefined) ?
Response: inactive

Prompt: Hello, I am checking results. What call was entered for "COc1cc(/C=C2\CN(S(=O)(=O)c3ccc(C)cc3)C/C(=C\c3cc(CN4CCOCC4)c(O)c(OC)c3)C2=O)cc(CN2CCOCC2)c1O" ?
Response: active

====

tested on: NCI-H226 lung; assay: NCI-60 one-dose screen, 48 h; conditions: 10 µM unless noted
About 83,000 compounds went through this panel and 20% of them were active in at least one assay; those are over-represented in the sample as a whole. Activity calls are given as the source filed them. The calls were made as follows: active = growth percent below 10; inactive = the rest.
Outcome (select one): active, inactive

Solved entries (count: 3):
O=C1Nc2ccc(Cl)cc2/C1=C/c1cccs1 = inactive
O=C1Nc2ccc(C(=O)O)c(O)c2C1=O = inactive
CCOC(=O)/C(=C/CC/C(C)=C/CC/C(C)=C/CCc1ccoc1)CC(=O)N1CCCCC1 = inactive

Prompt: Hello, I am checking results. What call was entered for "O=C1CNc2cc(Cl)ccc2N1" ?
Response: inactive

Prompt: Hello, I am checking results. What call was entered for "CCOC(=O)c1sc(NC(=O)COc2ccc(/C=C3\CCc4cc(OC)ccc4C3=O)cc2)nc1C" ?
Response: inactive

Prompt: Hello, I am checking results. What call was entered for COc1cc(C2CC(C3C(=O)N(C)C(=O)N(C)C3=O)=NN2c2cc(Cl)cc(Cl)c2)cc(OC)c1OC (stereo unspecified) ?
Response: inactive

Prompt: Hello, I am checking results. What call was entered for "O=C(c1ccc(N2CCOCC2)cc1[N+](=O)[O-])N1CCOCC1" ?
Response: inactive

Prompt: Hello, I am checking results. What call was entered for OC(c1cc(-c2cccc(Cl)c2)nc2ccccc12)C1CCCCN1 (stereo unspecified) ?
Response: inactive

Prompt: Hello, I am checking results. What call was entered for COc1cc(C2CC(C3C(=O)N(C)C(=O)N(C)C3=O)=NN2C=O)cc(OC)c1OC (stereo unspecified) ?
Response: inactive

Prompt: Hello, I am checking results. What call was entered for "CCN(CC)c1ccc(/C=C/C(=O)c2cccc(NS(C)(=O)=O)c2)cc1" ?
Response: inactive

Prompt: Hello, I am checking results. What call was entered for "COc1ccc(-c2cc(-c3cccnc3)nc(S(=O)(=O)CC(=O)Nc3ccc(C)cc3)c2C#N)cc1OC" ?
Response: inactive

Prompt: Hello, I am checking results. What call was entered for CC(=O)N1N=C(c2ccc(Cl)cc2)CC1c1c(C)nn(-c2ccccc2)c1N(C)Cc1ccccc1 (stereo unspecified) ?
Response: inactive

Prompt: Hello, I am checking results. What call was entered for "O=C1NCCc2c1noc2-c1ccccc1" ?
Response: inactive

Prompt: Hello, I am checking results. What call was entered for "CCCCc1n(Cc2ccc3ccccc3c2)cc[n+]1Cc1ccc2ccccc2c1" ?
Response: active

Prompt: Hello, I am checking results. What call was entered for "CCCCCCCCCCNCCSS(=O)(=O)O" ?
Response: inactive

Prompt: Hello, I am checking results. What call was entered for "CC(=O)Nc1ccc(C(=O)COc2cccc(/C=C3\CCc4ccccc4C3=O)c2)cc1" ?
Response: inactive

Prompt: Hello, I am checking results. What call was entered for "COc1ccc2c(c1)[n+](=O)c(C(=O)/C=C/c1cc(OC)c(OC)c(OC)c1)c(C)n2[O-]" ?
Response: inactive

Prompt: Hello, I am checking results. What call was entered for CC1C(=O)NC2=Nc3ccccc3C(=O)NN21 (stereo unspecified) ?
Response: inactive

Prompt: Hello, I am checking results. What call was entered for Nc1c(C(=O)Nc2cccc(Cl)c2)sc2nc3c(cc12)C(O)CCC3 (stereo unspecified) ?
Response: inactive

Prompt: Hello, I am checking results. What call was entered for "COc1ccc2nc(NC(=O)CN3CCn4c(nnc4C(F)(F)F)C3)sc2c1" ?
Response: inactive

Prompt: Hello, I am checking results. What call was entered for COc1cc(/C=C/C(=O)CC(=O)/C=C/c2ccc(OC(=O)C3C4CC5CC(C4)CC3C5)c(OC)c2)ccc1OC(=O)C1C2CC3CC(C2)CC1C3 (stereo unspecified) ?
Response: inactive

Source of measurements: PubChem BioAssay (NCI)
